system: 292921-168-R-J2-PDC KRAS tumor spheroid viability; experiment: Anticancer human tumor 292921-168-R-J2-PDC patient-derived pancreatic carcinoma cell line growth inhibition [KRAS2]; conditions: second compound 3.16 µM; first compound 0.1 µM; spheroids with HUVEC and MSC; active = viability on the fitted dose curve at most 10% of control; inactive = the rest;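 note: drug exposure lasted seven days after spheroids formed for three days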
Classes used: active, inactive

Cn1ncnc1[C@H]1c2n[nH]c(=O)c3cc(F)cc(c23)N[C@@H]1c1ccc(F)cc1 + CC1OCC2(CCN(c3cnc(Sc4ccnc(N)c4Cl)c(N)n3)CC2)C1N    inactive
Cn1ncnc1[C@H]1c2n[nH]c(=O)c3cc(F)cc(c23)N[C@@H]1c1ccc(F)cc1 + COc1cc2nc(C)nc(NC(C)c3cc(N)cc(C(F)(F)F)c3)c2cc1OC1CCOC1    inactive
Cn1nccc1Nc1nccc(-c2cc3c(s2)C(C)(C)N(CCN2CCOCC2)C3=O)n1 + CNCc1ccccc1-c1csc(C(C)Nc2nc(C)nc3cc(OC)c(OC)cc23)c1    active
COc1cc2nccc(Oc3ccc(NC(=O)C4(C(=O)Nc5ccc(F)cc5)CC4)cc3)c2cc1OC + CNCc1ccccc1-c1csc(C(C)Nc2nc(C)nc3cc(OC)c(OC)cc23)c1    active
CC(C)n1nc(-c2ccc3oc(N)nc3c2)c2c(N)ncnc21 + CNCc1ccccc1-c1csc(C(C)Nc2nc(C)nc3cc(OC)c(OC)cc23)c1    active
CN(C)C/C=C/C(=O)Nc1cc2c(Nc3ccc(F)c(Cl)c3)ncnc2cc1O[C@H]1CCOC1 + C=CC(=O)N1CCN(c2nc(OCC3CCCN3C)nc3c2CCN(c2cccc4cccc(C)c24)C3)CC1CC#N    active
